# protocol-notes: Quantitative High-Throughput drug screen in 47 multiple myeloma cell lines against the NCATS MIPE library collection: KMS12BM_JCRB cell viability assay (AID 1918971); note: nearly all actives have a fitted effect of over 35% in size
# condition-info: KMS12BM myeloma viability, CellTiter-Glo ATP, 48 h; series mostly up to 45.8 µM
Results filed as inconclusive are left out. Calls of active or inactive are those of the source. Calls come from the whole dose curve; as a rule, active = well fitted cell-killing curve with a large enough effect; inconclusive = small, poorly fitted or top-dose-only effect, or effect the other way; inactive = no such curve, though single readings can be large or run the other way.
Possible outcomes: active, inactive

compound=COc1cc2ncnc(Nc3ccc(F)c(Cl)c3)c2cc1OCCCN1CCOCC1 class_label=active
compound=COc1ncc(-c2ccc3nccc(-c4ccnnc4)c3c2)cc1NS(=O)(=O)c1ccc(F)cc1F class_label=active
compound=C[C@H]1[C@H](NC(=O)C(=NOC(C)(C)C(=O)O)c2csc(N)n2)C(=O)N1S(=O)(=O)O class_label=active
compound=NC1=N[C@@]2(c3cc(NC(=O)c4ccc(F)cn4)ccc3F)COC[C@@H]2CS1 class_label=inactive
compound="C[C@]12CCC3c4ccc(O)cc4CCC3C1CCC2=O (stereo not given in full)" class_label=active

---

# protocol-notes: qHTS of pediatric cancer cell lines to identify multiple opportunities for drug repurposing: Primary screen for TC32 cells (AID 1347089); note: nearly all actives have a fitted effect of over 60% in size
# condition-info: TC32 Ewing sarcoma viability, CellTiter-Glo luminescence, 48 h; series mostly up to 45.8 µM
Records with an inconclusive call do not appear. Active and inactive are the calls of the source. Calls follow the shape of the dose curve; as a rule, active = well fitted cell-killing curve with a large enough effect; inconclusive = small, poorly fitted or top-dose-only effect; inactive = flat fitted curve, though single readings scatter.
Possible outcomes: active, inactive

compound=COc1ccc2c(Oc3ccc(NC(=O)c4c(C)n(CC(C)(C)O)n(-c5ccccc5)c4=O)cc3F)ccnc2c1 class_label=inactive
compound=CCN(CC)C(=O)c1ccc(O)c(OC)c1 class_label=inactive
compound=COc1ccc(-c2coc3cc(O)cc(O)c3c2=O)cc1 class_label=inactive
compound=C[C@H](NC(=O)c1sccc1OCc1ccc(Cl)cc1)c1ccccc1 class_label=inactive
compound=CC(=O)O[C@]1(C(C)=O)CC[C@H]2[C@@H]3C=C(Cl)C4=CC(=O)[C@@H]5C[C@@H]5[C@]4(C)[C@H]3CC[C@@]21C class_label=inactive
compound=O=C(CCN1CCN(C(=O)OCc2cc(Cl)cc(Cl)c2)CC1)c1ccc2[nH]c(=O)oc2c1 class_label=inactive
compound=CC1(C)CCC2=C(O1)c1ccccc1C(=O)C2=O class_label=inactive
compound=CC=CC[C@@H](C)C(=O)[C@H]1C(=O)N[C@@H](C(C)C)C(=O)N(C)CC(=O)N(C)[C@@H](CC(C)C)C(=O)N[C@@H](C(C)C)C(=O)N(C)[C@@H](CC(C)C)C(=O)N[C@@H](C)C(=O)N[C@H](C)C(=O)N(C)[C@@H](CC(C)C)C(=O)N(C)[C@@H](CC(C)C)C(=O)N(C)[C@@H](C(C)C)C(=O)N1C class_label=inactive
compound=CCN(CC)CCOc1ccc(C(=C(Cl)c2ccccc2)c2ccccc2)cc1 class_label=inactive
compound=Cc1cc(OCCCc2c(C(=O)O)n(Cc3cccnc3)c3c(-c4c(COc5ccc(N6CCN([S+](C)(=O)[O-])CC6)cc5)nn(C)c4C)cccc23)cc(C)c1Cl class_label=inactive
compound="CCOC1OC(=O)C[C@H]1NC(=O)[C@@H]1CCCN1C(=O)[C@@H](NC(=O)c1ccc(N)c(Cl)c1)C(C)(C)C (some centres undefined)" class_label=inactive
compound=Cc1c[nH]c(C=C2C(=O)Nc3ccccc32)c1CCC(=O)O class_label=inactive
compound=N#Cc1ccc(NC(=O)Nc2ccccc2Br)c2n[nH]nc12 class_label=inactive
compound=O=C(Nc1c(Cl)cncc1Cl)c1ccc(OC(F)F)c(OCC2CC2)c1 class_label=inactive
compound=CCN1CCC[C@H]1CNC(=O)c1cc(S(N)(=O)=O)ccc1OC class_label=inactive
compound=CO[C@H]1C=CC=C(C)C(=O)NC2=CC(=O)C(NCCN(C)C)=C(C[C@@H](C)C[C@H](OC)[C@@H](O)[C@@H](C)C=C(C)[C@@H]1OC(N)=O)C2=O class_label=active
compound=O=c1cc(-c2ccccc2)oc2cc(O)c(O)c(O)c12 class_label=inactive
compound=C[C@@H](O)[C@H]1C(=O)N2C(C(=O)O)=C(S[C@@H]3CN[C@H](C(=O)N(C)C)C3)[C@H](C)[C@H]12 class_label=inactive
compound="CC(C(=O)O)c1ccc(-c2ccccc2)c(F)c1 (centres undefined)" class_label=inactive

---

# protocol-notes: Quantitative High-Throughput drug screen in 47 multiple myeloma cell lines against the NCATS MIPE library collection: INA6_PLB cell viability assay (AID 1918965; note: nearly all actives have a fitted effect of over 55% in size)
# condition-info: INA6 myeloma viability, CellTiter-Glo ATP luminescence, 48 h; series mostly up to 45.8 µM
Results filed as inconclusive are left out. Calls of active or inactive are those of the source. Calls come from the whole dose curve; as a rule, active = well fitted cell-killing curve with a large enough effect; inconclusive = small, poorly fitted or top-dose-only effect, or effect the other way; inactive = no such curve, though single readings can be large or run the other way.
Possible outcomes: active, inactive

compound=O=C(O)c1ccccc1C(=O)Nc1ccc(-c2ccccc2)cc1 class_label=inactive
compound="O=C(O)CCC1CCC(c2cc(F)ccc2F)(S(=O)(=O)c2ccc(Cl)cc2)CC1 (stereo not given)" class_label=active
compound="CNC1CCC(N(Cc2cccc(-c3ccncc3)c2)C(=O)c2sc3c(F)ccc(F)c3c2Cl)CC1 (stereo not given)" class_label=active
compound=O=c1c(O)c(-c2ccc(O)cc2)oc2cc(O)cc(O)c12 class_label=active
compound=O=C1NC(=O)C(=Cc2ccc3nccnc3c2)S1 class_label=active
compound="CS(=O)c1ccc(-c2nc(-c3ccc(F)cc3)c(-c3ccncc3)[nH]2)cc1 (stereo not given)" class_label=active
compound=N#CC(=C(N)Sc1ccccc1N)C(C#N)=C(N)Sc1ccccc1N class_label=active
compound=CCOC(CN1C(=O)[C@](CC(=O)Nc2ccc(C)cc2)(NC(=O)Nc2ccc(C)cc2)c2ccccc21)OCC class_label=active
compound=Nc1nc(F)nc2c1ncn2[C@@H]1O[C@H](COP(=O)(O)O)[C@@H](O)[C@H]1O class_label=inactive
compound=COc1cccc(-c2cc(=O)c3ccccc3o2)c1N class_label=active

---

Parameter: Potency. Scope: all listed entries.
# protocol-notes: Quantitative High-Throughput drug screen in 47 multiple myeloma cell lines against the NCATS MIPE library collection: MM1S_ATCC cell viability assay (AID 1918980); note: potency is the fitted concentration of half-maximal effect; nearly all actives have a fitted effect of over 45% in size
# condition-info: MM1S myeloma viability, CellTiter-Glo ATP luminescence, 48 h; series mostly up to 45.8 µM
Inconclusive results are not listed. Activity calls are given as the source filed them. The call rests on the fitted dose curve; in most records, active means well fitted cell-killing curve with a large enough effect; inconclusive means small, poorly fitted or top-dose-only effect, or effect the other way; inactive means no such curve, though single readings can be large or run the other way.
experimental-readout: Potency

compound="CC(=O)OC1C(C)OC(Oc2c(-c3ccc(O)cc3)oc3cc(O)cc(O)c3c2=O)C(O)C1OC(C)=O (stereo not given)" measured_value="20.9 µM (active)"
compound=O=C(Nc1cc(Cl)cc2c1[nH]c1cnccc12)c1cccnc1 measured_value="11.8 µM (active)"
compound=CC(=O)O[C@]1(C(C)=O)CC[C@@H]2[C@@H]3C[C@H](C)C4=CC(=O)CC[C@]4(C)[C@H]3CC[C@@]21C measured_value="13.2 µM (active)"
compound="CC(=O)Oc1cc2c(s1)CCN(C(C(=O)C1CC1)c1ccccc1F)C2 (stereo not given)" measured_value="0.833 µM (active)"
compound=O=C1c2ccccc2-[n+]2ccc3c([nH]c4ccccc43)c21 measured_value="2.64 µM (active)"

---

# protocol-notes: Quantitative High-Throughput drug screen in 47 multiple myeloma cell lines against the NCATS MIPE library collection: XG1_PLB cell viability assay (AID 1919866); note: nearly all actives have a fitted effect of over 35% in size
# condition-info: CellTiter-Glo ATP, 48 h; series mostly up to 45.8 µM
Inconclusive results are not listed. The source made the active and inactive calls. Calls come from the whole dose curve; as a rule, active = well fitted cell-killing curve with a large enough effect; inconclusive = small, poorly fitted or top-dose-only effect, or effect the other way; inactive = no such curve, though single readings can be large or run the other way.
Possible outcomes: true (1) = active, false (0) = inactive

compound=CC[C@@H]1C=C(C)C[C@H](C)C[C@H](OC)[C@H]2O[C@@](O)(C(=O)C(=O)N3CCCC[C@@H]3C(=O)O[C@H](C(C)=C[C@@H]3CC[C@H](Cl)[C@H](OC)C3)[C@H](C)[C@@H](O)CC1=O)[C@H](C)C[C@H]2OC class_label="true (1)"
compound=Cn1c(N2CCCCS2(=O)=O)nc(C(=O)NCc2ccc(F)cc2)c(O)c1=O class_label="false (0)"
compound=CC1(C)Cc2c(sc(NC(=S)NC(=O)c3ccccc3)c2C(=O)O)CO1 class_label="false (0)"
compound=Cc1c(NC(=O)c2ccc(C(C)(C)C)cc2)cccc1-c1cn(C)c(=O)c(Nc2ccc(C(=O)N3CCOCC3)cc2)n1 class_label="true (1)"
compound=NS(=O)(=O)c1cccc2c1C(=O)c1cccc(O)c1C2=O class_label="true (1)"
compound=Cc1ccc(C(=O)Nc2cccc(C(F)(F)F)c2)cc1Nc1nc(-c2cccnc2)nc2c1cnn2C class_label="true (1)"
compound=O=C1C[C@@H](c2ccc(O)cc2)Oc2cc(O)cc(O)c21 class_label="false (0)"
compound="CNC1CCC(N(Cc2cccc(-c3ccncc3)c2)C(=O)c2sc3c(F)ccc(F)c3c2Cl)CC1 (stereo not drawn)" class_label="true (1)"

---

# protocol-notes: Quantitative High-Throughput drug screen in 47 multiple myeloma cell lines against the NCATS MIPE library collection: KMS26_JCRB cell viability assay (AID 1918975); note: nearly all actives have a fitted effect of over 45% in size
# condition-info: KMS26 myeloma cells viability, CellTiter-Glo ATP, 48 h; series mostly up to 45.8 µM
Records with an inconclusive call do not appear. Calls of active or inactive are those of the source. Calls follow the shape of the dose curve; as a rule, active = well fitted cell-killing curve with a large enough effect; inconclusive = small, poorly fitted or top-dose-only effect, or effect the other way; inactive = no such curve, though single readings can be large or run the other way.
Possible outcomes: YES (active), NO (inactive)

molecule="COc1ccc(-c2oc3c(CC=C(C)C)c(OC4O[C@H](CO)[C@@H](O)[C@H](O)[C@@H]4O)cc(O)c3c(=O)c2OC2O[C@@H](C)[C@H](O)[C@@H](O)[C@@H]2O)cc1 (stereo partly drawn)" class_label=YES
molecule=CC(C)(C)OC(=O)N[C@H]1CCCCCC=C[C@@H]2C[C@@]2(C(=O)NS(=O)(=O)C2CC2)NC(=O)[C@@H]2C[C@@H](OC(=O)N3Cc4cccc(F)c4C3)CN2C1=O class_label=NO
molecule=C[C@H]1[C@H](NC(=O)C(=NOC(C)(C)C(=O)O)c2csc(N)n2)C(=O)N1S(=O)(=O)O class_label=NO
molecule="C[C@]12CCC3c4ccc(O)cc4CCC3C1CCC2=O (stereo partly drawn)" class_label=YES
molecule=O=C1c2ccccc2-[n+]2ccc3c([nH]c4ccccc43)c21 class_label=YES
molecule=CC(C)n1cnc2c(NCCCCCCNC(=O)OC(C)(C)C)nc(NCCO)nc21 class_label=YES
molecule=CCS(=O)(=O)N1CC(CC#N)(n2cc(-c3ncnc4[nH]ccc34)cn2)C1 class_label=YES
molecule=COc1ccc2c(Oc3ccc(NC(=O)c4c(C)n(CC(C)(C)O)n(-c5ccccc5)c4=O)cc3F)ccnc2c1 class_label=NO
molecule=Cc1c(O)cccc1C(=O)N[C@@H](CSc1ccccc1)[C@H](O)CN1C[C@H]2CCCC[C@@H]2C[C@@H]1C(=O)NC(C)(C)C class_label=YES
molecule=CCOc1ccc(Nc2nc(-c3c(C)nc4ccccn34)cs2)cc1 class_label=YES
molecule="COCCOC(=O)C1=C(C)NC2=C(C(=O)CC(c3ccccc3OC)C2)C1c1cccc(O)c1 (stereo not drawn)" class_label=YES
molecule=NS(=O)(=O)c1ccc(NC2=CC(=O)c3ccccc3C2=O)cc1 class_label=YES
molecule=O=C1c2c(O)cc(O)cc2O[C@H](c2cc(O)c(O)c(O)c2)[C@H]1O class_label=YES
molecule=CC[C@H]1OC(=O)[C@H](C)[C@@H](O[C@H]2C[C@@](C)(OC)[C@@H](O)[C@H](C)O2)[C@H](C)[C@@H](O[C@@H]2O[C@H](C)C[C@H](N(C)C)[C@@H]2O)[C@](C)(O)C[C@@H](C)CN(C)[C@H](C)[C@@H](O)[C@]1(C)O class_label=NO
molecule=O=C(Nc1c(Cl)cncc1Cl)c1ccc(OC(F)F)c(OCC2CC2)c1 class_label=NO
molecule=CO[C@H]1C[C@@H]2CC[C@@H](C)[C@@](O)(O2)C(=O)C(=O)N2CCCC[C@@H]2C(=O)O[C@H]([C@@H](C)C[C@@H]2CC[C@H](O)[C@H](OC)C2)CC(=O)[C@H](C)C=C(C)[C@@H](O)[C@@H](OC)C(=O)[C@H](C)C[C@H](C)C=CC=CC=C1C class_label=NO
molecule=O=c1[nH]cnc2c1ncn2[C@H]1CC[C@@H](CO)O1 class_label=NO
molecule=Nc1ncnc2c1ncn2[C@@H]1O[C@@H](CO)[C@H](O)[C@H]1O class_label=NO
